Reference source for all entries: ChEMBL document CHEMBL1154532

test system: Bacillus subtilis; assay: Antibacterial activity against Bacillus subtilis 168; type: functional
assay-endpoint: MIC (µg/mL)

// known answers, use as guide
[
  {
    "mol-smiles": "CCCCCCCCCCOc1cccc(C(N)=O)c1",
    "result-number": 1
  },
  {
    "mol-smiles": "CCOc1cccc(C(N)=O)c1",
    "result-number": 2000
  }
]

[A] COc1cccc(C(N)=S)c1
[B] CCCCCCCCCOc1ccc(Cl)c(C(N)=O)c1F
[C] CCCCOc1cccc(C(N)=O)c1
[D] CCCCCCCCCOc1ccc(F)c(C(N)=O)c1
[E] COc1ccc(F)c(C(N)=O)c1
# sort list by recorded MIC, greatest to least Output the labels ranked as instructed.
A, E, C, D, B

----------
test system: Bacillus subtilis; experiment: Antibacterial activity against Bacillus subtilis 168; format: functional
assay-endpoint: MIC (µg/mL)

// known answers, use as guide
[
  {
    "mol-smiles": "CCCCCCCCOc1cccc(C(N)=O)c1",
    "subject-of-test": "Bacillus subtilis",
    "unit-abbrev": "µg/mL",
    "MIC": 1
  },
  {
    "mol-smiles": "CCCCCCCOc1cccc(C(N)=O)c1",
    "subject-of-test": "Bacillus subtilis",
    "unit-abbrev": "µg/mL",
    "MIC": 4
  },
  {
    "mol-smiles": "CCCCCOc1cccc(C(N)=O)c1",
    "subject-of-test": "Bacillus subtilis",
    "unit-abbrev": "µg/mL",
    "MIC": 32
  },
  {
    "mol-smiles": "CCCCCCCCCCCOc1cccc(C(N)=O)c1",
    "subject-of-test": "Bacillus subtilis",
    "unit-abbrev": "µg/mL",
    "MIC": 4
  },
  {
    "mol-smiles": "CCCCCCCCCOc1ccc(F)c(C(N)=O)c1Cl",
    "subject-of-test": "Bacillus subtilis",
    "unit-abbrev": "µg/mL",
    "MIC": 0.5
  },
  {
    "mol-smiles": "COc1cccc(CN)c1",
    "subject-of-test": "Bacillus subtilis",
    "unit-abbrev": "µg/mL",
    "MIC": 250
  }
]

[a] CCCCCCCCCOc1cccc(C(N)=O)c1F
[b] COc1cccc(C(=O)NO)c1
// returns a or b , whichever has the lower MIC Answer by quoting the chosen item's label.
a
(a: 0.125 µg/mL, b: 4000 µg/mL)

[1] COc1ccc(F)c(C(N)=O)c1F
[2] CCCCCCCCCOc1ccc(F)c(C(N)=O)c1F
[3] COc1ccc(Cl)c(C(N)=O)c1F
# sort list by recorded MIC, greatest to least Output the labels ranked as instructed.
3, 1, 2
(3: 1020 µg/mL, 1: 512 µg/mL, 2: 0.125 µg/mL)

----------
Entries and their MIC
system: Bacillus subtilis; assay: Antibacterial activity against Bacillus subtilis 168; type: functional

Name the recorded MIC of `COc1cccc(C(N)=O)c1C` , assay system Bacillus subtilis.
> 4000 µg/mL

Name the recorded MIC of `COc1ccc(OC)c(C(N)=O)c1` , assay system Bacillus subtilis.
> 4000 µg/mL

Name the recorded MIC of `COc1cc(C(N)=O)ccc1[N+](=O)[O-]` , assay system Bacillus subtilis.
> 4000 µg/mL

----------
Entries and their MIC
tested on: Bacillus subtilis; assay: Antibacterial activity against Bacillus subtilis 168; assay type: functional

[
  {
    "mol-smiles": "COc1cccc(C(N)=O)c1[N+](=O)[O-]",
    "subject-of-test": "Bacillus subtilis",
    "result": "> 4000 µg/mL"
  },
  {
    "mol-smiles": "COc1cc(C(N)=O)ccc1F",
    "subject-of-test": "Bacillus subtilis",
    "result": "> 4000 µg/mL"
  }
]

Kindly review the next molecule as well.
Identify the reported MIC for the following entry. `COc1ccc(F)c(C(N)=O)c1Cl`
> 4000 µg/mL

----------
Entries and their MIC
tested on: Bacillus subtilis; experiment: Antibacterial activity against Bacillus subtilis 168; format: functional

// known answers, use as guide
[
  {
    "mol-smiles": "CNc1cccc(C(N)=O)c1",
    "MIC": "> 4000 µg/mL"
  },
  {
    "mol-smiles": "COc1cccc(C(N)=O)c1OC",
    "MIC": "> 4000 µg/mL"
  }
]

Identify the reported MIC for the following entry. `COc1ccc(C(N)=O)cc1`
> 4000 µg/mL

Identify the reported MIC for the following entry. `COc1cc(OC)cc(C(N)=O)c1`
> 4000 µg/mL

Identify the reported MIC for the following entry. `CCCOc1cccc(C(N)=O)c1`
500 µg/mL

----------
tested on: Bacillus subtilis; assay: Antibacterial activity against Bacillus subtilis 168; assay type: functional
assay-endpoint: MIC

// known answers, use as guide
[
  {
    "mol-smiles": "COc1cccc(C(N)=O)c1F",
    "MIC": "512 µg/mL"
  },
  {
    "mol-smiles": "NC(=O)c1cccc(OC(F)(F)F)c1",
    "MIC": "> 4000 µg/mL"
  },
  {
    "mol-smiles": "COc1cccc(CC(N)=O)c1",
    "MIC": "> 4000 µg/mL"
  },
  {
    "mol-smiles": "CCCCCCOc1cccc(C(N)=O)c1",
    "MIC": "16 µg/mL"
  },
  {
    "mol-smiles": "Cc1cccc(C(N)=O)c1",
    "MIC": "> 2000 µg/mL"
  },
  {
    "mol-smiles": "COc1ccc([N+](=O)[O-])c(C(N)=O)c1",
    "MIC": "> 4000 µg/mL"
  },
  {
    "mol-smiles": "COc1cccc(C(N)=O)c1",
    "MIC": "4000 µg/mL"
  },
  {
    "mol-smiles": "CNC(=O)c1cccc(OC)c1",
    "MIC": "> 4000 µg/mL"
  },
  {
    "mol-smiles": "COc1cccc(C(=O)O)c1",
    "MIC": "> 4000 µg/mL"
  },
  {
    "mol-smiles": "CSc1cccc(C(N)=O)c1",
    "MIC": "> 4000 µg/mL"
  }
]

Identify the reported MIC for the following entry. `CCCCCCCCCOc1cccc(C(N)=O)c1`
0.5 µg/mL

Identify the reported MIC for the following entry. `COc1ccc(C(N)=O)cc1OC`
> 4000 µg/mL

Identify the reported MIC for the following entry. `NC(=O)c1cccc(O)c1`
> 4000 µg/mL
